Value source: ChEMBL document CHEMBL1201862

- System: Hs-578T
- protocol-text: NCI tumour cell line growth inhibition, 48 h
Calls of active or inactive are those of the source. Rule as the data show it: active = GI50 up to about 1.1 µM and inactive = higher.
For each of the compounds below, state its GI50.

Item CCCCCC(=O)NC(=S)Nc1nnn[nH]1 ; assay system Hs-578T; GI50 reported as > 100 µM (inactive)

Item CC12CCC(=O)N1c1cncnc1N2 (configuration not stated) ; assay system Hs-578T; GI50 reported as > 10 µM (inactive)

Item Cc1cc(N(CCC#N)CCC#N)ccc1C(/N=N/c1ccc([N+](=O)[O-])cc1)=N\NC(=O)c1cc(Cl)ccc1C(=O)c1ccccc1 ; assay system Hs-578T; GI50 reported as 17.4 µM (inactive)

Item NC(C(F)(F)F)(C(F)(F)F)P(=O)(c1ccccc1)c1ccccc1 ; assay system Hs-578T; GI50 reported as > 100 µM (inactive)

Item CS(=O)(=O)c1cc(=O)c2ccccc2s1 ; assay system Hs-578T; GI50 reported as 26.6 µM (inactive)

Item Oc1c(N2CCCCC2)cc(-c2cc(N3CCCCC3)c(O)c3ccccc23)c2ccccc12 ; assay system Hs-578T; GI50 reported as 27.7 µM (inactive)

Item O=C(O)CN1C(=O)CN=C(c2ccccn2)c2cc(Cl)ccc21 ; assay system Hs-578T; GI50 reported as > 100 µM (inactive)

Item O=c1[nH]cc(-c2c[nH]c3ccccc23)nc1-c1c[nH]c2ccccc12 ; assay system Hs-578T; GI50 reported as 14.2 µM (inactive)

Item CCCCCCc1ccc(C(=O)NO)cc1 ; assay system Hs-578T; GI50 reported as > 100 µM (inactive)

Item CN(C)C(=O)CO/N=C1/C(=C2/C(=O)Nc3ccccc32)Nc2ccccc21 ; assay system Hs-578T; GI50 reported as > 100 µM (inactive)

Item Nc1ccc(I)cn1 ; assay system Hs-578T; GI50 reported as > 100 µM (inactive)

Item CC(Cc1cccc2c1Nc1ccccc1S2)N(C)CCO (configuration not stated) ; assay system Hs-578T; GI50 reported as > 100 µM (inactive)

Item NC(=O)c1nnc2cc(F)c(F)cc2c1N ; assay system Hs-578T; GI50 reported as 26.7 µM (inactive)

Item Nc1ncnc2c1ncn2C1CCC(CP(=O)(O)O)C1 (configuration not stated) ; assay system Hs-578T; GI50 reported as > 100 µM (inactive)

Item COc1cc2c3c([nH]c2c(OC)c1OC)CCN(Cc1ccccc1)C3 ; assay system Hs-578T; GI50 reported as 32.4 µM (inactive)

Item O=C(O)CCCc1ccc(N(CCCl)CCCl)cc1 ; assay system Hs-578T; GI50 reported as 189 µM (inactive)

Item COc1ccc(-c2c(C#N)c(N)nc3c2CCS(=O)(=O)c2ccccc2-3)cc1 ; assay system Hs-578T; GI50 reported as 37.7 µM (inactive)

Item N=C(/C=C/c1ccc(-c2cn3cc(/C=C/C(=N)N4CCOCC4)ccc3n2)cc1)N1CCOCC1 ; assay system Hs-578T; GI50 reported as > 100 µM (inactive)

Item CSc1nc(=O)c(C#N)c(-c2ccccc2)n1C1OC(COC(C)=O)C(OC(C)=O)C(OC(C)=O)C1OC(C)=O (configuration not stated) ; assay system Hs-578T; GI50 reported as 39.8 µM (inactive)

Item O=S(=O)(c1ccccc1)c1ccc(-c2nc(-c3ccc4c(c3)Sc3ccccc3S4)cs2)cc1 ; assay system Hs-578T; GI50 reported as 8.69 µM (inactive)

Item O=C1NC2c3c(I)sc(I)c3C(O)C2O1 (configuration not stated) ; assay system Hs-578T; GI50 reported as > 100 µM (inactive)

Item O=C(Nc1ccn(C2CC(I)C(COC(c3ccccc3)(c3ccccc3)c3ccccc3)O2)c(=O)n1)c1ccccc1 (configuration not stated) ; assay system Hs-578T; GI50 reported as 3.03 µM (inactive)
